testedOn: human sEH (Homo sapiens (Human), UniProt P34913)
Sequence (P34913 whole entry): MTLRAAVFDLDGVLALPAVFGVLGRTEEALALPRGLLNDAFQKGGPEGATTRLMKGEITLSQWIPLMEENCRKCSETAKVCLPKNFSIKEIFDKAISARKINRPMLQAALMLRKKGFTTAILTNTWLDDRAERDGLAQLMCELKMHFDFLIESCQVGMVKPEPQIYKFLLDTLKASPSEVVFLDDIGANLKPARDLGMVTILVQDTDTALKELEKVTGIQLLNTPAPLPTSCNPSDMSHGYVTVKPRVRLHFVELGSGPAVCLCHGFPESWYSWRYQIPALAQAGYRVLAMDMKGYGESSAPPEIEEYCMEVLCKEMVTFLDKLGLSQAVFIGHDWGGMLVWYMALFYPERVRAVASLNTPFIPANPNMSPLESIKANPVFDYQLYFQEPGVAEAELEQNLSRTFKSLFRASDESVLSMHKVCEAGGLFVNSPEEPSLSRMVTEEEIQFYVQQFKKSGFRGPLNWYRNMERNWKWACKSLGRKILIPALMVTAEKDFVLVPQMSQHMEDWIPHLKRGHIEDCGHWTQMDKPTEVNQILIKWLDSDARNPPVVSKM
testDetails: Inhibition of human soluble epoxide hydrolase (IC50; one of three substrate methods);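 further: enzyme expressed in baculovirus and affinity-purified, assays run in triplicate, with substrate and read-out differing among the three methods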
Assay type: biochemical
measurementParameters: recombinant human sEH
pIC50: −log10 of the molar value.
readoutKind: pIC50

entrySmiles: O=C(NC1CCN(C(=O)c2ccccc2)CC1)NC12CC3CC(CC(C3)C1)C2
readoutKind: pIC50
numericResult: 8.89

entrySmiles: O=C(NCC1CCN(C(=O)c2ccncc2)CC1)NC12CC3CC(CC(C3)C1)C2
readoutKind: pIC50
numericResult: 8.27

entrySmiles: COC(=O)c1ccc(C(=O)N2CCC(CNC(=O)NC34CC5CC(CC(C5)C3)C4)CC2)cc1
readoutKind: pIC50
numericResult: 8.82

entrySmiles: O=C(Nc1ccc2[nH]cnc2c1)NC1CCCCC1
readoutKind: pIC50
numericResult: 6.34

entrySmiles: O=C(CC12CC3CC(CC(C3)C1)C2)NC1CCN(C(=O)C(F)(F)F)CC1
readoutKind: pIC50
numericResult: 7.55

entrySmiles: O=C(NC1CCCCC1)NC1CCNCC1
readoutKind: pIC50
numericResult: 6.25

P: COC(=O)CCC(=O)N1CCC(CNC(=O)NC23CC4CC(CC(C4)C2)C3)CC1
Q: CCCCCCCCCCCCNC(=O)Nc1ccc2[nH]ccc2c1
Data request: Problem: Given the entries P and Q , determine which has the lower reported pIC50. // return label of chosen record
Data returned: Q

---

testDetails: Pharmacokinetic screening in dogs, oral administration, plasma LC-MS/MS
measurementParameters: dogs, single oral dose (0.3 mg/kg per FIG. 1), time 120 min
readoutKind: LC/MS analysis, plasma level at time 120

For orientation, consider the following solved cases.
entrySmiles: COC(=O)c1ccc(C(=O)N2CCC(NC(=O)NC34CC5CC(CC(C5)C3)C4)CC2)cc1
readoutKind: LC/MS analysis, plasma level at time 120
numericResult: 0.11

entrySmiles: CC(=O)N1CCC(NC(=O)NC23CC4CC(CC(C4)C2)C3)CC1
readoutKind: LC/MS analysis, plasma level at time 120
numericResult: 107.19

entrySmiles: CCCC(=O)N1CCC(NC(=O)NC23CC4CC(CC(C4)C2)C3)CC1
readoutKind: LC/MS analysis, plasma level at time 120
numericResult: 9.50

entrySmiles: O=C(NC1CCN(C(=O)C(F)(F)F)CC1)NC12CC3CC(CC(C3)C1)C2
readoutKind: LC/MS analysis, plasma level at time 120
numericResult: 9.37

entrySmiles: O=C(NCC1CCN(C(=O)c2ccccc2)CC1)NC12CC3CC(CC(C3)C1)C2
readoutKind: LC/MS analysis, plasma level at time 120
numericResult: 0.42

entrySmiles: COC(=O)CCCC(=O)N1CCC(NC(=O)NC23CC4CC(CC(C4)C2)C3)CC1
readoutKind: LC/MS analysis, plasma level at time 120
numericResult: 0.00

A: O=C(NC1CCN(C(=O)c2ccccn2)CC1)NC12CC3CC(CC(C3)C1)C2
B: CC(=O)N1CCC(NC(=O)Nc2ccc(OC(F)(F)F)cc2)CC1
Data request: When their LC/MS analysis, plasma level at time 120 values are compared, which is larger, A or B ? // return label of chosen record
Data returned: B

---

testDetails: Pharmacokinetic screening in dogs, oral administration, plasma LC-MS/MS
measurementParameters: dogs, single oral dose (0.3 mg/kg per FIG. 1), time 240 min
readoutKind: LC/MS analysis, plasma level at time 240

For orientation, consider the following solved cases.
compound: COC(=O)c1ccc(C(=O)N2CCC(NC(=O)NC34CC5CC(CC(C5)C3)C4)CC2)cc1 [Compound 1204]
readoutKind: LC/MS analysis, plasma level at time 240
numericResult: 0.00

compound: COC(=O)CCCC(=O)N1CCC(NC(=O)NC23CC4CC(CC(C4)C2)C3)CC1 [Compound 1206]
readoutKind: LC/MS analysis, plasma level at time 240
numericResult: 0.00

a: O=C(NC1CCN(C(=O)c2ccccn2)CC1)NC12CC3CC(CC(C3)C1)C2 [Compound 1201]
b: O=C(NC1CCN(C(=O)c2ccccc2)CC1)NC12CC3CC(CC(C3)C1)C2 [Compound 1159]
Data request: When their LC/MS analysis, plasma level at time 240 values are compared, which is larger, a or b ? // return label of chosen record
Data returned: a
(a: 3.16, b: 0.00)
